Test: Pharmacokinetic study in rats, plasma (LC/MS/MS, non-compartmental)
Assay type: in vivo, rat
Conditions: rat, plasma, ip, 5 mg/kg, rats, EMD386088 alone (2.5 and 5 mg/kg) i.p.; read-out: t 1/2 (terminal half-life)
Description: Blood samples were collected at 0 min (predose), 5 min, 15 min, 30 min, 60 min, 120 min, and 240 min after injections. […] Pharmacokinetic parameters were calculated by a non-compartmental approach from the average concentration values, using Phoenix WinNonlin software (Certara, Princeton, NJ 08540 USA). First order elimination rate constant (λz) was calculated by linear regression of time versus log concentration. […]
ENDPOINT_LABEL: half-life (min)

>>> measured_number("Cc1[nH]c2ccc(Cl)cc2c1C1=CCNCC1.Cl [EMD386088]")
67

###

Test: Pharmacokinetic study in rats, plasma (LC/MS/MS, non-compartmental)
Type: in vivo, rat
Conditions: rat, plasma, ip, 2.5 mg/kg, rat plasma, EMD386088 2.5 mg/kg i.p. jointly with imipramine (IMI) 15 mg/kg i.p.
ENDPOINT_LABEL: CL/F

>>> result("Cc1[nH]c2ccc(Cl)cc2c1C1=CCNCC1.Cl")
"289 mL/min/kg"
